Entries and their measured max activation follow.
Protocol text: activators of glucose-dependent insulin secretion, dose response, cell-based, INS-1E, Gaussia luciferase, luminescence, cherry-pick, set 2 (AID 977607);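 note: 0% = median of the plate neutral control wells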
Assay conditions: INS-1E GLuc insulin secretion reporter, 2-3 h, stronger effect = higher value; at 35 µM, 100% = signal doubled over neutral wells unless noted
In all, about 1,500 compounds went through this assay and about 460 (31%) were called active. Another 1% or so got no clear call; they are omitted. These entries were drawn from the full list. Entries with a potency or affinity are not part of this list.
Quantity kind: max activation

> print(dat)
                                    molecule   quantity.kind             result
 1  CCOC(=O)c1c(C)[nH]c(C(=O)COC(=O)c2cnccn2)c1C  max activation     27% (inactive)
 2  COC(=O)c1c(C)oc(C)c1S(=O)(=O)Nc1ccc(C(C)C)cc1  max activation  -24.4% (inactive)
 3        CC(C)c1ccc2oc(=O)cc(CN3CCCCC3)c2c1  max activation  -12.8% (inactive)
 4  CCOc1cc(/C=N/NC(=O)CCn2nnc3ccccc32)ccc1O  max activation   23.5% (inactive)
 5  COc1cccc(-n2c(=O)n(Cc3ccccc3)c(=O)c3[nH]cnc32)c1C  max activation   14.5% (inactive)
 6           O=C(COc1nncc2ccccc12)NCC(F)(F)F  max activation   25.7% (inactive)
 7   COc1ccc(S(=O)(=O)Nc2ccc3c(c2)OCO3)cc1OC  max activation  -21.1% (inactive)
 8  Cc1ccc(C(OCC(O)CNCc2ccc(F)cc2)c2ccccc2)cc1 (centres undefined)  max activation   97.1% (inactive)
 9  CCc1nc2c(OCc3ccccc3C(=O)OC)cccn2c1N(C)C(=O)c1ccncc1  max activation  -29.4% (inactive)
10        CN1CCSc2ccc(C(=O)Nc3cccc(F)c3)cc21  max activation  -34.2% (inactive)
11    Cc1cccc(C)c1NC(=O)C1c2ccccc2Oc2ccccc21  max activation   22.9% (inactive)
12  CC1(C)CCCC(C)(C)N1CC(O)COCCOc1ccc(Br)cc1 (centres undefined)  max activation  -12.4% (inactive)

---

Entries and their measured max activation follow.
Protocol text: activators of glucose-dependent insulin secretion, dose response, cell-based, INS-1E, Gaussia luciferase, luminescence, cherry-pick, set 2 (AID 977607);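 note: 0% = median of the plate neutral control wells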
Assay conditions: INS-1E GLuc insulin secretion reporter, 2-3 h, stronger effect = higher value; at 35 µM, 100% = signal doubled over neutral wells unless noted
The campaign covered roughly 1,500 compounds. About 460 (31%) were called active. About 1% were inconclusive and are not listed. Not all results are given here. Results with a measured potency or affinity are listed apart.
Quantity kind: max activation

> print(dat)
                                   compound   quantity.kind            result
1  COc1ccc(-c2cccc(C(=O)Nc3ccc(C)cc3)c2)cc1  max activation  26.8% (inactive)
2          CCOc1nc(-c2ccccc2)c2cc(Br)ccc2n1  max activation  13.2% (inactive)

---

Protocol text: activators of glucose-dependent insulin secretion, dose response, cell-based, INS-1E, Gaussia luciferase, luminescence, cherry-pick, set 2 (AID 977607);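 note: 0% = median of the plate neutral control wells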
Assay conditions: INS-1E GLuc insulin secretion reporter, 2-3 h, stronger effect = higher value; at 35 µM, 100% = signal doubled over neutral wells unless noted
Out of some 1,500 compounds screened, about 460 (31%) were called active. Inconclusive results (about 1%) are left out. The list is a sample of the results. Entries with a potency or affinity are not part of this list.
Quantity kind: max activation

> print(dat)
                                   compound   quantity.kind            result
1  CCNC(=O)C1(C)CCCN1Cc1cccc(C(F)(F)F)c1 (centres undefined)  max activation   -24% (inactive)
2  Cc1ccc(C)c(S(=O)(=O)Nc2ccc(C(=O)N3CCC3)cc2)c1  max activation  27.7% (inactive)
3  CCCCc1c(-c2ccccc2OC)ncn1C(C)c1ccccc1 (centres undefined)  max activation  37.1% (inactive)

---

Protocol text: activators of glucose-dependent insulin secretion, dose response, cell-based, INS-1E, Gaussia luciferase, luminescence, cherry-pick, set 2 (AID 977607);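 note: 0% = median of the plate neutral control wells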
Assay conditions: INS-1E GLuc insulin secretion reporter, 2-3 h, stronger effect = higher value; at 35 µM, 100% = signal doubled over neutral wells unless noted
Among all 1,500 compounds or so, about 460 (31%) were called active. Inconclusive results (about 1%) are left out. Only a sample is shown. Entries with a potency or affinity are not part of this list.
Quantity kind: max activation

> print(dat)
                                   molecule   quantity.kind             result
1               CNc1nc(OCC#N)nc(N2CCCCC2)n1  max activation     25% (inactive)
2  O=C(Nc1ccc2oc(-c3cccnc3)nc2c1)c1ccc2c(c1)OCCO2  max activation     21% (inactive)
3  O=C(NCC1(O)CCCCC1)C1CCC(=O)N(Cc2ccccc2F)C1 (stereo unspecified)  max activation  -16.4% (inactive)
4          CNc1nc(-c2ccccc2)cc(-c2ccccc2)n1  max activation  -32.2% (inactive)
5  COc1ccccc1CNC(=O)CCS(=O)(=O)Cc1ccc(C)cc1  max activation  -17.3% (inactive)

---

Protocol text: activators of glucose-dependent insulin secretion, dose response, cell-based, INS-1E, Gaussia luciferase, luminescence, cherry-pick, set 2 (AID 977607);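 note: 0% = median of the plate neutral control wells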
Assay conditions: INS-1E GLuc insulin secretion reporter, 2-3 h, stronger effect = higher value; at 35 µM, 100% = signal doubled over neutral wells unless noted
Screen size: about 1,500 compounds; about 460 (31%) were called active. Not shown: some 1% with an inconclusive outcome. Not all results are given here. Potency and affinity values are given separately.
Entries and their measured max activation follow.
Quantity kind: max activation

> print(dat)
                                   compound   quantity.kind             result
1  Cc1cc(Oc2cccnc2)ccc1NC(=O)Cc1cn(C)c2ccccc12  max activation  -32.7% (inactive)
2  CN(c1ccc(C(=O)N2CCN(Cc3ccccc3)CC2)cc1)S(=O)(=O)c1ccccc1  max activation  -44.5% (inactive)
3  N#Cc1ccc(-c2ccc3c(c2)[C@@H]2[C@@H](CCN2C(=O)C2CCCC2)[C@@H](CO)N3)cc1  max activation  -29.6% (inactive)

---

Protocol text: activators of glucose-dependent insulin secretion, dose response, cell-based, INS-1E, Gaussia luciferase, luminescence, cherry-pick, set 2 (AID 977607);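 note: 0% = median of the plate neutral control wells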
Assay conditions: INS-1E GLuc insulin secretion reporter, 2-3 h, stronger effect = higher value; at 35 µM, 100% = signal doubled over neutral wells unless noted
About 460 (31%) of roughly 1,500 compounds were called active. Inconclusive results (about 1%) are left out. Not all results are given here. Measured potencies and affinities stand elsewhere.
Quantity kind: max activation

> print(dat)
                                   compound            result
1  CC(C)NC(=O)OC[C@H]1O[C@H](C#Cc2ccc(C(C)(C)C)cc2)C=C[C@H]1O  54.1% (inactive)
2      O=C(O)c1ccc(-n2nnnc2SCc2ccccc2Br)cc1  24.2% (inactive)

---

Protocol text: activators of glucose-dependent insulin secretion, dose response, cell-based, INS-1E, Gaussia luciferase, luminescence, cherry-pick, set 2 (AID 977607);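 note: 0% = median of the plate neutral control wells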
Assay conditions: INS-1E GLuc insulin secretion reporter, 2-3 h, stronger effect = higher value; at 35 µM, 100% = signal doubled over neutral wells unless noted
Hit rate of the full screen: of about 1,500 compounds, about 460 (31%) were called active. Inconclusive results (about 1%) are left out. The list is a sample of the results. Results with a measured potency or affinity are listed apart.
Entries and their measured max activation follow.
Quantity kind: max activation

> print(dat)
                                    compound             result
 1  COc1ccc(-c2ocnc2C(=O)Nc2ccc(N3CCOCC3)cc2N2CCOCC2)cc1OC  -29.2% (inactive)
 2           CCN(c1ccccc1)c1nc(Cl)nc2c1cnn2C   28.8% (inactive)
 3  C=CCn1c(O)c(N=NC(=O)CNC(=O)c2ccco2)c2ccccc21   10.5% (inactive)
 4  COc1ccc(/C=C/c2noc(-c3ccccc3OC(C)=O)n2)cc1  -25.1% (inactive)
 5          COc1ccc(-c2nnc(-c3cccs3)o2)cc1OC   29.4% (inactive)
 6          Cc1cc(Br)c2c(c1)C1(OCCO1)C(=O)N2    -12% (inactive)
 7  COc1ccc(-n2c(-c3ccc(Cl)cc3)c[nH]c2=S)cc1   14.5% (inactive)
 8         CN=C1c2ccccc2CN1c1cccc(C(=O)OC)c1   14.7% (inactive)
 9  CCc1cccc(NC(=O)C2CCCN2S(=O)(=O)c2ccc3c(c2)n(C)c(=O)c(=O)n3C)c1 (stereo unspecified)  -17.8% (inactive)
10  CCOc1ncccc1C(=O)NC(C)CCc1ccccc1 (stereo unspecified)   29.7% (inactive)
11  COc1ccc(C2=Nn3c(nnc3-c3ccccc3OC)SC2)cc1OCC1CC1  -35.7% (inactive)
